Tested on: Calu-6
Assay Details: Cancer cell proliferation, Alamar Blue assay 72 hours, Calu-6
Assay type: cell-based
Condition Summary: Homo sapiens
Recorded Metric: IC50 (nM)

# Chemical String, Experimental Value
records = [
    ("O=C(/C=C/c1ccc2cccc(O)c2n1)c1ccncc1", 7400),
]

[1] O=C(/C=C/c1ccc2cccc(O)c2n1)c1cccnc1
[2] O=C(/C=C/c1ccc2ccccc2n1)c1ccc(O)cc1
1 or 2 : whose IC50 is greater? API: response body contains the label of the selected item. 1
(1: 2400 nM, 2: 1600 nM)

[a] Nc1ccc(C(=O)/C=C/c2ccc3ccccc3n2)cc1
[b] Cc1ccc(C(=O)/C=C/c2ccc3ccccc3n2)cc1
For a and b , which recorded IC50 is lower? The response must carry the label of the picked entry. a
(a: 2100 nM, b: 4800 nM)

* * *

System: SK-N-SH
Assay Details: MTT assay 48 hours, SK-N-SH
Assay type: cell-based
Condition Summary: Homo sapiens
Recorded Metric: pIC50
pIC50 is defined as minus the log10 of a concentration measured in mol/L.

Param item = O=C(/C=C/c1ccc2cccc(O)c2n1)c1ccncc1 ; retrieve measured pIC50. 5.84

* * *

Target System: PFKFB3, the recombinant protein (Homo sapiens, UniProt Q16875)
Sequence (Q16875 whole entry): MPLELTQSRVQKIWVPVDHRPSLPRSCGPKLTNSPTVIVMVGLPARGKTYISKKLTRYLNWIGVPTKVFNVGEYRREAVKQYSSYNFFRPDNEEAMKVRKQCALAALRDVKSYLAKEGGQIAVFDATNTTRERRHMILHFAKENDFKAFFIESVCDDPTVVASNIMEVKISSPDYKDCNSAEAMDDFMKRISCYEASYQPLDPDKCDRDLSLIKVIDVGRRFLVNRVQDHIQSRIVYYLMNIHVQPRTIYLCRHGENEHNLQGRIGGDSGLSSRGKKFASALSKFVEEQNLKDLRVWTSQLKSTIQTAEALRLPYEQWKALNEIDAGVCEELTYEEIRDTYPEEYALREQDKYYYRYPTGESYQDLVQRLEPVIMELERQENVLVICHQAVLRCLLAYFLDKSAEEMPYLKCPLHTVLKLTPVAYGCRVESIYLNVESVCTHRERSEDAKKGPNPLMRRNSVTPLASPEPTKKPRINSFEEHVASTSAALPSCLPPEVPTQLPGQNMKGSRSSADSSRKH
Assay Details: Inhibition of recombinant PFKFB3 (Adapta Kinase assay)
Condition Summary: read-out: IC50 EArec
pIC50: −log10 of the molar value.
Recorded Metric: pIC50

# Chemical String, pIC50
data = [
    ("CNc1cccc2ccc(/C=C/C(=O)c3ccncc3)nc12", 6.54),
    ("O=C(/C=C/c1ccc2cc(O)ccc2n1)c1ccncc1", 6.09),
    ("Cc1cccc2ccc(/C=C/C(=O)c3ccncc3)nc12", 6.68),
    ("O=C(/C=C/c1ccc2ccccc2n1)c1ccnc(F)c1", 6.18),
]

[P] Cc1ccc2ccc(/C=C/C(=O)c3ccncc3)nc2c1
[Q] O=C(/C=C/c1ccc2cccc(F)c2n1)c1ccncc1
Could you tell me which of P and Q has the lower pIC50 reading? Mark your answer with the label of the selected entry. P
(P: 6.21, Q: 6.53)

* * *

System: Jurkat
Assay Details: Cancer cell proliferation, Alamar Blue assay 72 hours, Jurkat
Type: cell-based
Condition Summary: Homo sapiens, Jurkat, 72 h
Recorded Metric: IC50 (nM)

# Chemical String, Target System, Measurement Unit, IC50
rows = [
    ("O=C(/C=C/c1ccnc2ccccc12)c1ccncc1", "Jurkat", "nM", 1000),
]

[A] O=C(/C=C/c1ccnc2ccccc12)c1cccnc1
[B] O=C(/C=C/c1cccc2ncccc12)c1ccncc1
[C] O=C(/C=C/c1ccc2ccccc2n1)c1ccnc(F)c1
Rank entries according to their IC50, from the largest number down. // ordering of labels required in reply A, C, B
(A: 2500 nM, C: 1700 nM, B: 1000 nM)

* * *

Assay Details: Solubility profile in aqueous media
Type: physicochemical
Condition Summary: 23 °C, aqueous buffer, pH = 7
Counter-ions that a name gives are not always drawn.
Recorded Metric: solubility (µg/mL)

[P] Cc1ccc2ccc(/C=C/C(=O)c3ccncc3)nc2c1 [PFK-154, HCl]
[Q] Cc1cccc2ccc(/C=C/C(=O)c3ccncc3)nc12 [PFK-141, HCl]
Problem: Given the entries P and Q , determine which has the lower reported solubility. Selection: enter the item's label. Q
(Q: 1900 µg/mL, P: 3400 µg/mL)

* * *

Tested on: melanoma (CRL-11174) cells
Assay Details: In vitro growth inhibition, melanoma line
Format: cell-based
Condition Summary: Homo sapiens
Recorded Metric: IC50 (µM)
The answer is to be given in µM; state only the numeric part.

# lookup: IC50 of O=C(/C=C/c1cccnc1)c1ccncc1 15

* * *

System: Jurkat
Assay Details: Cancer cell proliferation, Alamar Blue assay 72 hours, Jurkat
Type: cell-based
Condition Summary: Homo sapiens, Jurkat, 72 h
Method: The ability of the compounds described herein to kill or inhibit the proliferation of cancer cells was measured using either the MTT assay, the Alamar Blue assay, or the Cell Titer Glow® assay using 48 or 72 hours exposure. […] The procedures are briefly described below. Cells of the desired tumor cell line were plated at 2×10^5 cells/ml in 96 well plates. Twice the indicated concentrations of the compounds of the invention were added to cells the following day in an equal volume of media. […]
Recorded Metric: IC50 (µM)

// below: answered compounds
# Compound, Measurement Unit, Experimental Value
measured = [
    ("O=C(/C=C/c1ccc2cccc(O)c2n1)c1ccncc1 [ACT-PFK-070]", "µM", 1.3),
    ("O=C(/C=C/c1ccc2cccc(F)c2n1)c1ccncc1 [ACT-PFK-145]", "µM", 0.9),
    ("Nc1ccc(C(=O)/C=C/c2ccc3ccccc3n2)cc1 [ACT-PFK-089]", "µM", 4.2),
    ("O=C(/C=C/c1ccc2ccccc2n1)c1ccccn1 [ACT-PFK-085, 1-Pyridin-2-yl-3-quinolin-2-yl-propenone]", "µM", 4.9),
]

[a] Cc1ccc(C(=O)/C=C/c2ccc3ccccc3n2)cc1 [ACT-PFK-068, 3-Quinolin-2-yl-1-p-tolyl-propenone]
[b] O=C(/C=C/c1cccc2cccnc12)c1ccncc1 [ACT-PFK-047, 1-Pyridin-4-yl-3-quinolin-8-yl-propenone]
[c] O=C(/C=C/c1ccc2cccnc2c1)c1cccnc1 [ACT-PFK-037, 1-Pyridin-3-yl-3-quinolin-7-yl-propenone]
[d] O=C(/C=C/c1ccc2ccccc2n1)c1ccccc1O [ACT-PFK-086]
Arrange the 4 compounds from largest to smallest IC50. Put the labels in the order asked and list them. d, b, a, c
(d: 80.5 µM, b: 14 µM, a: 5.5 µM, c: 2.5 µM)

* * *

Assay Details: Solubility in dosing solution Cre:EtOH:Saline
Type: physicochemical
Condition Summary: Cremophor:EtOH:Saline 5:5:90, aqueous with cosolvent or surfactant or cyclodextrin, kinetic from dmso stock; 5:5:90 Cremophor:EtOH:Saline, after 24 hours at room temperature
Recorded Metric: solubility at 24 h (µg/mL)

Sample records with solubility at 24 h:
# Molecule, solubility at 24 h [µg/mL]
measured = [
    ("Cc1cccc2ccc(/C=C/C(=O)c3ccncc3)nc12", 800),
    ("O=C(/C=C/c1ccc2cccc(O)c2n1)c1ccncc1", 100),
    ("O=C(/C=C/c1ccc2cc(O)ccc2n1)c1ccncc1", 300),
    ("CNc1cccc2ccc(/C=C/C(=O)c3ccncc3)nc12", 1900),
]

[a] O=C(/C=C/c1ccc2cccc(F)c2n1)c1ccncc1
[b] NC(=O)c1ccc(C(=O)/C=C/c2ccc3ccccc3n2)cc1 [ACT-PFK-091, 4-(3-Quinolin-2-yl-acryloyl)-benzamide]
Please choose the item with the lower solubility at 24 h value from this pair: a and b Mark your answer with the label of the selected entry. a

* * *

Assay Details: Solution stability in clear and amber vials
Assay type: physicochemical
Condition Summary: Cremophor:EtOH:Saline solution, aqueous with cosolvent or surfactant or cyclodextrin, kinetic from dmso stock; Cre:EtOH:Saline, 4 hrs
Where a name gives a salt, the structure may show the parent alone.
Recorded Metric: solubility at 4 h (µg/mL)
Form entry: value (µg/mL) — number only.

Fill blank: measured solubility at 4 h of the compound O=C(/C=C/c1ccc2cccc(O)c2n1)c1ccncc1 [PFK-070, HCl] is ____. 800

* * *

System: MiaPaca
Assay Details: MTT assay 48 hours, MiaPaca
Assay type: cell-based
Condition Summary: Homo sapiens, MIA PaCa-2
Experimental: The ability of the compounds described herein to kill or inhibit the proliferation of cancer cells was measured using either the MTT assay, the Alamar Blue assay, or the Cell Titer Glow® assay using 48 or 72 hours exposure. […] The procedures are briefly described below. Cells of the desired tumor cell line were plated at 2×10^5 cells/ml in 96 well plates. Twice the indicated concentrations of the compounds of the invention were added to cells the following day in an equal volume of media. […]
Recorded Metric: pIC50
Please keep in mind that pIC50 is minus log10 of the molar concentration; only the number is needed.

What value of pIC50 has been recorded for this entry: O=C(/C=C/c1ccc2cccc(O)c2n1)c1ccncc1 [ACT-PFK-070] 6.56

* * *

Assay Details: Solution stability in clear and amber vials
Assay type: physicochemical
Condition Summary: Cremophor:EtOH:Saline solution, aqueous with cosolvent or surfactant or cyclodextrin, kinetic from dmso stock; Cre:EtOH:Saline, 8 hrs
Counter-ions that a name gives are not always drawn.
Recorded Metric: solubility at 8 h

Fill in the blank: the reported solubility at 8 h of O=C(/C=C/c1ccc2cccc(O)c2n1)c1ccncc1 [PFK-070, HCl] is ____. < 700 µg/mL

* * *

Assay Details: Solubility profile in aqueous media
Assay type: physicochemical
Condition Summary: 23 °C, aqueous buffer, pH = 5
Counter-ions that a name gives are not always drawn.
Recorded Metric: solubility (µg/mL)

# Compound, Experimental Value
data = [
    ("Cc1cccc2ccc(/C=C/C(=O)c3ccncc3)nc12 [PFK-141, HCl]", 1700),
    ("Cc1ccc2ccc(/C=C/C(=O)c3ccncc3)nc2c1 [PFK-154, HCl]", 2400),
]
